assay overview: Inhibition of porcine heart MDH using oxaloacetic acid as substrate preincubated for 5 mins followed by substrate and […] addition and measured for 80 sec by absorbance based analysis
Parameters: species or system Sus scrofa
Cut-off 10 µM on IC50: below means MET, at or above means NOT MET.

Here are 3 molecules together with their reported answers.
molecule	category
CC(C)=CCc1c(O)ccc(C(=O)/C=C/c2ccc(O)cc2)c1O	NOT MET
O=c1cc(-c2ccc(O)c(O)c2)oc2cc(O)cc(O)c12	NOT MET
Cc1ccc(C(=O)Nc2ccc(S(=O)(=O)O)c3cc(S(=O)(=O)O)cc(S(=O)(=O)O)c23)cc1NC(=O)c1cccc(NC(=O)Nc2cccc(C(=O)Nc3cc(C(=O)Nc4ccc(S(=O)(=O)O)c5cc(S(=O)(=O)O)cc(S(=O)(=O)O)c45)ccc3C)c2)c1	MET

Is IC50 of CCCCCc1cc(O)c(C/C=C(\C)CCC=C(C)C)c(O)c1C(=O)O strictly below 10 µM?
NOT MET

Quick check: IC50 of CCOC(=O)c1c(CSc2ccccc2)n(C)c2cc(Br)c(O)c(CN(C)C)c12 under 10 µM?
MET

Threshold test, IC50 < 10 µM: C=C[C@@](C)(/C=C/c1ccc(O)cc1)CCC=C(C)C
NOT MET

Threshold test, IC50 < 10 µM: Oc1ccc(-c2[o+]c3cc(O)cc(O)c3cc2O)cc1.[Cl-] [PELARGONIDIN CHLORIDE]
MET

Quick check: IC50 of COc1c(O)cc2oc(-c3ccccc3)cc(=O)c2c1O under 10 µM?
NOT MET

Consider the molecule O=c1c(O)c(-c2ccc(O)c(O)c2)oc2cc(O)cc(O)c12 . Is its IC50 strictly less than 10 µM?
MET

Please state whether IC50 is below 10 µM for O=c1cc(-c2ccc(O)c(-c3c(O)cc(O)c4c(=O)cc(-c5ccc(O)cc5)oc34)c2)oc2cc(O)cc(O)c12
MET
